All values here come from ChEMBL document CHEMBL1201862.

Test system: MCF7
experimental.protocol: NCI tumour cell line growth inhibition, 48 h
Activity calls are given as the source filed them. Rule as the data show it: active = GI50 up to about 1.1 µM and inactive = higher.
Write down one outcome, taken from yes = active, no = inactive

See these solved cases before continuing.
{"compound": "CNC1(C(=O)O)CC1", "assigned.class": "no"}
{"compound": "Cc1cccc2c(N)c3cccc(C(=O)NCC[N+](C)(C)Cc4c([N+](=O)[O-])ncn4C)c3nc12", "assigned.class": "no"}
{"compound": "COc1ccc(C[C@@H]2CN(C(=O)c3ccccc3)[C@H](Cc3ccc(O)cc3)CN2C(=O)c2ccccc2)cc1Br", "assigned.class": "no"}
{"compound": "O=C(C/N=C(\\CN(c1ccccc1)c1ccccc1)Oc1c(Cl)cc(Cl)cc1Cl)N1c2ccccc2Sc2ccccc21", "assigned.class": "no"}

Could you kindly confirm the outcome this assay logged for Cc1nn(C(=O)Cc2ccccc2)c2c1C(c1ccc(Cl)cc1)SC(=N)N2 (stereo not drawn) ? no

* * *

# reported GI50; entries follow
System: SK-MEL-2
experimental.protocol: NCI tumour cell line growth inhibition, 48 h
Calls of active or inactive are those of the source. No stated cut-off is given here; in the data, active = GI50 up to about 1.1 µM and inactive = higher.

The following compounds have reported results that may help.
{"compound": "CNC=O", "GI50": "> 10000 µM (inactive)"}
{"compound": "C#C[C@]1(O)CCC2C3CCc4cc(Oc5nc(F)nc(-c6c7cc8ccccc8cc7c7n6CCS7)n5)ccc4C3CCC21C (stereo not given in full)", "GI50": "28.8 µM (inactive)"}
{"compound": "C=C1C(C)C2C(Cc3ccccc3)NC(=O)C23OC(=O)/C=C\\CC(=O)CCC(C)C/C=C/C3C1O (stereo not given)", "GI50": "1.58 µM (inactive)"}
{"compound": "CCOC(=O)N1CCc2cc(OC)c(OC)cc2/C1=C/c1ccc(OC)c(OC)c1", "GI50": "51.6 µM (inactive)"}
{"compound": "COc1ccc(-c2cc(-c3ccco3)c(C#N)c(=S)n2C2OC(CO)C(O)C(O)C2O)cc1 (stereo not given)", "GI50": "> 100 µM (inactive)"}

# lookup: GI50 of CSC(SC)=C1Sc2cccc(Cl)c2S1 17.9 µM (inactive)

* * *

Tested on: HL-60
experimental.protocol: NCI tumour cell line growth inhibition, 48 h
Calls of active or inactive are those of the source. No stated cut-off is given here; in the data, active = GI50 up to about 1.1 µM and inactive = higher.
Write down one outcome, taken from True for active, False for inactive

{"compound": "CCOC(=O)c1nc2ccccc2nc1NCc1cc(OC)c(OC)c(OC)c1", "assigned.class": "False"}
{"compound": "Cc1cccc2c(N)c3cccc(C(=O)NCC[N+](C)(C)Cc4c([N+](=O)[O-])ncn4C)c3nc12", "assigned.class": "False"}
{"compound": "O=C1c2cc3ccccc3cc2C2(c3ccc(Cl)cc3)N[C@H]3CCCC[C@@H]3N12 (some centres not stated)", "assigned.class": "False"}
{"compound": "COC(=O)c1c(C)cccc1CC1Cc2c(C)cccc2C1=O (configuration not stated)", "assigned.class": "False"}
{"compound": "COc1cccc(/C=C2\\S/C(=N/Nc3nc(C)c(C)s3)NC2=O)c1O", "assigned.class": "False"}
{"compound": "CN(C)c1ccc(/N=N/c2ccccn2)cc1", "assigned.class": "False"}

Could you kindly confirm the outcome this assay logged for Cc1ccc(C)c(N2C(=O)C(=O)C(c3nc4ccccc4s3)/C(=N\c3cccc4c(=O)[nH][nH]c(=O)c34)C2=O)c1 (configuration not stated) ? False

Could you kindly confirm the outcome this assay logged for CN(C)c1ccc(NN=C2SC(=N\c3ccccc3)/C(=N/c3ccccc3)S2)cc1 ? False

Could you kindly confirm the outcome this assay logged for COC(=O)/C(=N\NC(C)(C)C)C(C(=O)OC)C(=O)C(=O)Nc1cc(Cl)ccc1Cl (configuration not stated) ? False

Could you kindly confirm the outcome this assay logged for CCOC(=S)SSSC(=S)OCC ? False

Could you kindly confirm the outcome this assay logged for COc1ccc(OC(=O)CC2Cc3cc(OC)c(OC)c(OC)c3-c3ccc(SC)c(=O)cc32)cc1 (configuration not stated) ? True

Could you kindly confirm the outcome this assay logged for C=C1C(=O)OC2CC(C)C(C(CC(C)=O)OC(C)=O)=CCC12 (configuration not stated) ? False

Could you kindly confirm the outcome this assay logged for O=C(/C=C/c1ccco1)CC(=O)/C=C/c1ccco1 ? False

Could you kindly confirm the outcome this assay logged for COc1cc(/C=C/c2nc(N)nnc2C)cc(OC)c1OC ? False

Could you kindly confirm the outcome this assay logged for C=C(CCCCC)CN1CCCC1[C@@](C)(O)CC(=O)OCC (some centres not stated) ? False
